# Tgt: T1, mouse NMUR1-ATG (mouse, UniProt O55040 1-428)
# T1 sequence (looked up): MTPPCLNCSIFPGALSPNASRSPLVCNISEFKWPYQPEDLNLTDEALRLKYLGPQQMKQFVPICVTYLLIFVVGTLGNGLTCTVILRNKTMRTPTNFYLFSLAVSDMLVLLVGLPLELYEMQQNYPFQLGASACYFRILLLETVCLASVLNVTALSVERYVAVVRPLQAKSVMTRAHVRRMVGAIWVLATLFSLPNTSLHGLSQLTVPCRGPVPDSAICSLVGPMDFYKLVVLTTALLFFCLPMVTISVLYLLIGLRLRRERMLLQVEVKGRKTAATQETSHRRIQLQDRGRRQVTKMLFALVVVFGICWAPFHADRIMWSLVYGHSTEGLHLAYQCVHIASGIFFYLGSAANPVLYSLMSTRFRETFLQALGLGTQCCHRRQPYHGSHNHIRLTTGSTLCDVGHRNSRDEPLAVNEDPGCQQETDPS
# Experiment: cell-based or functional assay
No end group written: not given here. *: point of attachment. (PEG)2 40 kDa = branched PEG of 40 kDa linked via the Cys side-chain thiol (code C2 = Cys(PEG)2 40 kDa); Succinimide(1-Et,3-yl) = CCN1C(=O)CC(*)C1=O
Reported % Activity (FLIPR) values are given for each entry in this list.

| Binder | % Activity (FLIPR) |
| --- | --- |
| Ac-C(Succinimide(1-Et,3-yl))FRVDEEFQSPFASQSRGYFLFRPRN-NH2 [NMU8] | 100% |
| GYFLFRPRN-NH2 [NMU3] | 100% |
| Ac-C((PEG)2 40 kDa)FQSPFASQSRGYFLFRPRN-NH2 [NMU20] | 100% |

The measured values listed here are drawn from patent US20070244048A1.
